Measured target: T1, human Rh(D) antigen on Rh(D)-positive red blood cells (human, UniProt Q02161 2-417)
T1 construct: whole, on cells; also called wt; wild type Rh(D)
T1 sequence (looked up): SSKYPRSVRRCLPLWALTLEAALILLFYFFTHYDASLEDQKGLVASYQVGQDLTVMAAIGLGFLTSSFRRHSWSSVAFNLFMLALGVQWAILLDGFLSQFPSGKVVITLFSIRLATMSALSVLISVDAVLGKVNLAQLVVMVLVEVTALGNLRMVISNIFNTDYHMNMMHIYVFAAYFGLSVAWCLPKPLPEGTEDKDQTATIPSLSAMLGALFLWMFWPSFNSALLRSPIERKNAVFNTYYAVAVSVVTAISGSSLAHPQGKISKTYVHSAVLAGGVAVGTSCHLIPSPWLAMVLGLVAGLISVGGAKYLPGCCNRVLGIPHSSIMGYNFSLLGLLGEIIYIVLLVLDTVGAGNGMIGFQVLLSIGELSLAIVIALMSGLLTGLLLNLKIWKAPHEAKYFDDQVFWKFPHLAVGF
Protocol text: agglutination, anti-M13
Quantity kind: binding result

>  <Binder>
SH18 (Fab, V domains shown, Fab on M13 phage) VH: EVQLLESGGGVVQPGRSLRLSCAASGFTFRSYAMHWVRQAPGKGLEWVAATAYDGKNKYYADSVKGRFTISRDNSMNTLFLQMNSLRAEDTAVFYCARGGFYYDSSGYYGLRHYFDSWGQGTLVTVSS VL: AELTQSPSSLSASVGDRVTITCRASQSISIALNWYQQRPGKAPKLLMYATSTLQSGVPSRFSGSGSGTDFTLTISSLQPEDFATYYCQQYYNKPTFGPGTKVDIKR

>  <Measured result>
binds

$$$$
>  <Binder>
SH47 (Fab, V domains shown, Fab on M13 phage) VH: EVQLLESGGGVVQPGRSLRLSCAASGFSFSNYAMHWVRQAPGKGLEWVAVTSFDGSIKDYADSVKGRFTISRDNSKNTLYLQMNSLRDEDTAVYYCARERGMIVVVRRRNAFDIWGQGTMVTVSS VL: AELTQSPSSLSASVGDRVTITCRASQSISNYLNWYQQKPGKAPNLLIYAASSLQSGVPSRFSGSGSGTDFTLTISSLQPEDFATYYCQQSYSYPRTFGQGTKVEIRR

>  <Measured result>
binds

$$$$
>  <Binder>
SH54 (Fab, V domains shown, Fab on M13 phage) VH: EVQLLESGGGVVQPGRSLRLSCAASGFTFSRNGMHWVRQAPGKGLEWVAFIWFDGSNKYYADSVKGRFTISRDNSKNTLYLQMNSLRADDTAVYYCAREEALFRGLTRWSYGMDVWGQGTTVSVSS VL: AELTQSPSSMSASVGDRVTITCRASQSIGTYLNWYQQKPGKAPKLLIYAASSLQSGVPSRFSGSGSGTDFTLTISSLQPEDFATYYCQQSYSTPWTFGQGTKVEIKR

>  <Measured result>
binds

$$$$
